Target: Tumor necrosis factor (Homo sapiens, UniProt P01375)
Sequence (P01375 whole entry): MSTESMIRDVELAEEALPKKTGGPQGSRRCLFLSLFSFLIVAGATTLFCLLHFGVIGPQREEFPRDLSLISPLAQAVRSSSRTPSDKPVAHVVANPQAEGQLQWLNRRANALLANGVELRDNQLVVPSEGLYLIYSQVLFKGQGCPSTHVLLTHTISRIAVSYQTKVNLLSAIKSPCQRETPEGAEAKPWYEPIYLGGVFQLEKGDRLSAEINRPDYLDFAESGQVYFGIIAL
Assay: analog potency on TNFa NF-kB signaling – cell-based, revised, SAR follow-up (AID 2337)
Assay type: functional
The source made the active and inactive calls.
Would you mind answering with one of these outcomes? t for active, f for inactive

Exam item: Recorded test outcome, item COC(=O)c1c(NC(=O)c2cccc(F)c2)sc2c1CCC(C)C2 (centres undefined)
Marked response: f

Exam item: Recorded test outcome, item `CC(C)(C)C(=O)/N=C(\N)Nc1nc2ccccc2o1`
Marked response: t

Exam item: Recorded test outcome, item `Cc1ccc(C)c(SCC(=O)OC/C(O)=C(\C#N)c2nc3ccccc3[nH]2)c1`
Marked response: f

--- query ---
Exam item: Recorded test outcome, item CC1CCc2c(sc(NC(=O)/C=C/c3cccs3)c2C(=O)O)C1 (centres undefined)
Marked response: t

----------
Provide the recorded IC50 for the entries that follow.
Molecular target: Polyadenylate-binding protein 1 (Homo sapiens)
Sequence (P11940 whole entry, the tested form may be a part): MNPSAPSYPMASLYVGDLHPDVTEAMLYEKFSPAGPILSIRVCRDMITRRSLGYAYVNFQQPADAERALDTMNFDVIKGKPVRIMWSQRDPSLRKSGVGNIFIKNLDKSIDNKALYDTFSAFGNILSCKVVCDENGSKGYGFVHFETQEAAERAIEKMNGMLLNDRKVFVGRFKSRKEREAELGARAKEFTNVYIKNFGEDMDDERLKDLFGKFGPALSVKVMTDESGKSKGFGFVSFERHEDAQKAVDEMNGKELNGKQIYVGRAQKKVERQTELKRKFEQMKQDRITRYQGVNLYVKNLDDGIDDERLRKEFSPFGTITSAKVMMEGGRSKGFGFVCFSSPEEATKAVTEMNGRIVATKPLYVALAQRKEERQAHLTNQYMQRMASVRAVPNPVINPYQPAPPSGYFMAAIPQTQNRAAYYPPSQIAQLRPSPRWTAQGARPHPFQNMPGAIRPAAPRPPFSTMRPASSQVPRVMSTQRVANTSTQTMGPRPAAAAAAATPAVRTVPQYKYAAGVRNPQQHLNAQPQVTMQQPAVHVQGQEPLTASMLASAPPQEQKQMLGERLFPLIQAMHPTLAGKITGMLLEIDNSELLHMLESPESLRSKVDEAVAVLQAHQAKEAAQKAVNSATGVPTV
Assay: MLLE domain peptide-binding blockers, IC50 – biochemical, fluorescence polarization, FITC-PAM2 peptide, dose response (AID 602259)
Format: functional
Settings: read-out: IC50_Mean
Activity calls are given as the source filed them.

// below: answered compounds
Looking up `CCN(CC(=O)Nc1c(F)cccc1F)C(=O)Cc1ccc2c(c1)CCC2` , I see its IC50 listed as > 66 µM (inactive)

Looking up `CNC(=S)NN=C(C)c1ccc(OC)cc1O` , I see its IC50 listed as > 66 µM (inactive)

Looking up `CCOC(=O)CSc1nc2c(sc(=S)n2-c2ccccc2OC)c(=O)n1Cc1ccco1` , I see its IC50 listed as > 66 µM (inactive)

Looking up `O=C(COc1ccc(Cl)cc1Cl)Nn1c(=S)[nH]c2ncccc2c1=O` , I see its IC50 listed as > 66 µM (inactive)

Looking up `c1ccc(Cc2nnc3sc(-c4ccncc4)nn23)cc1` , I see its IC50 listed as > 66 µM (inactive)

Quick request: IC50 for each listed item, please.
1. O=C(COc1ccc(C(=S)N2CCOCC2)cc1Cl)Nc1ccccc1Cl
2. CCn1c(O)nc(CS(=O)(=O)c2ccccc2)c1C
3. CCn1c2ccccc2c2nnc(SCc3ccc(C(=O)OC)o3)nc21
4. COc1ccc(C2C=C(c3ccc(C)cc3)Nc3ncnn32)cc1 (configuration not stated)

Marked response:
["> 66 µM (inactive)", "> 66 µM (inactive)", "> 66 µM (inactive)", "> 66 µM (inactive)"]

Quick request: IC50 for each listed item, please.
1. O=C(NC(=S)Nc1cc([N+](=O)[O-])ccc1O)c1cccnc1
2. CCOC(=O)N1CCN(Cc2c(O)ccc3ccccc23)CC1

Marked response:
1: > 66 µM (inactive); 2: > 66 µM (inactive)

Looking up `O=C(CN1C(=O)c2ccccc2S1(=O)=O)Nc1ncc(Cl)cc1Cl` , I see its IC50 listed as 27.3 µM (inactive)

----------
Target: Corticotropin-releasing factor receptor 2/Corticotropin-releasing factor-binding protein (Homo sapiens, UniProt P24387+Q13324)
Sequence (Q13324 whole entry): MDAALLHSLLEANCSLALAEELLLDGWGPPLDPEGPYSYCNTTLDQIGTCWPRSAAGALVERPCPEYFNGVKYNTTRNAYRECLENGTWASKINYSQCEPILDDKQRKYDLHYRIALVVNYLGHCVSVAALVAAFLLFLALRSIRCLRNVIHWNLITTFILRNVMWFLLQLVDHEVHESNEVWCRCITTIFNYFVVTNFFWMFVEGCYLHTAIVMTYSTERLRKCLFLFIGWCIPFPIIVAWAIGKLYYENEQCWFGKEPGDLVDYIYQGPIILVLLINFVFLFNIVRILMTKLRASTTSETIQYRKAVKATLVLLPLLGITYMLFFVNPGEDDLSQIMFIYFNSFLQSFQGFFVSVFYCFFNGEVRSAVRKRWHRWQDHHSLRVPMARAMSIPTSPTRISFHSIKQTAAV
Sequence (P24387 whole entry): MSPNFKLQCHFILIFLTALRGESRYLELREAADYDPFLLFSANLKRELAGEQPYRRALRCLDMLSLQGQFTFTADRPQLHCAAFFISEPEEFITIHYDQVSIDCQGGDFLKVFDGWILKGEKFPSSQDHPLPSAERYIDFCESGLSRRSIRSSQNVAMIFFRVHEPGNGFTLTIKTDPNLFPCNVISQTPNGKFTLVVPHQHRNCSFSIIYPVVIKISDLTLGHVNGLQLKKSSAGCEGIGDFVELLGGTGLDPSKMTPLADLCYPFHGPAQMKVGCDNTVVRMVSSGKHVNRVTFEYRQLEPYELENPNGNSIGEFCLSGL
Experiment: Dose Response confirmation of uHTS hits for small molecule antagonists of the CRF-binding protein and CRF-R2 receptor complex.
Type: functional
Details: read-out: IC50_Mean
The source made the active and inactive calls.
ENDPOINT LABEL: IC50

// below: answered molecules
Looking up `Cc1ccc(C(=O)C=Cc2cccc(C)c2)cc1` , I see its IC50 listed as > 47.1 µM (inactive)

Looking up `COc1ccc(CCNC(=O)c2cccc3c2C(=O)N(C2CCCCC2)C3)cc1OC` , I see its IC50 listed as 5.54 µM (active)

Quick request: IC50 for each listed item, please.
1. CCN(CC)C(=O)/C(=C/c1cn(S(=O)(=O)N(C)C)c2ccccc12)NC(=O)c1ccc(OC)cc1
2. Cc1ccccc1N=C1N=C(S)N(c2ccccc2)C12CCCCC2
3. O=C(O)CC(SCC(=O)Nc1ccc(Br)cc1)C(=O)O (centres undefined)
4. Cc1cc(=O)oc2c1ccc1oc(/C(=N/O)c3ccccc3)c(C)c12
5. Cc1noc(NS(=O)(=O)c2ccc(NC(=O)CS(=O)(=O)c3ccccc3)cc2)c1C
6. CCn1c(S)nnc1CCNC(=O)c1ccccc1Cl
7. CC(=O)NC1=NN(C(C)=O)C(C)(c2ccccn2)S1 (centres undefined)

Marked response:
> 47.1 µM (inactive)
> 47.1 µM (inactive)
> 47.1 µM (inactive)
24.5 µM (active)
> 47.1 µM (inactive)
> 47.1 µM (inactive)
> 47.1 µM (inactive)
